# Measured on: detergent-solubilized EmrE (Escherichia coli, UniProt P23895)
# Construct: full-length EmrE (110 aa), organic-extracted, solubilized in DDM, purified from E. coli BL21(DE3); unfused
# Sequence (P23895 whole entry, the tested form may be a part): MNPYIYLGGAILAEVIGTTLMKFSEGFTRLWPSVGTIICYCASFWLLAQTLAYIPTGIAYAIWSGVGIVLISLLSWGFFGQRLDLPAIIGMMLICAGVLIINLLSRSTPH
# Assay details: tryptophan fluorescence quenching titration (excitation […] nm)
# Assay type: binding
# Measurement conditions: read-out: Kd
pKd: −log10 of the molar value.

Compound	Measured on	pKd
CC[n+]1c(-c2ccccc2)c2cc(N)ccc2c2ccc(N)cc21 [ethidium bromide]	detergent-solubilized EmrE (Escherichia coli, UniProt P23895)	5.27
